- method-description: Brain and plasma concentration after intraperitoneal administration in mice
- Format: in vivo, C57BL/6J mice
- condition-info: mouse, brain; C57BL/6J mice, 10 mg/kg ip, 1 h, n = 3; read-out: brain concn
observable: concentration at 1 h (ng/g)

[[record]]
compound = "COC(=O)N1CCC[C@H](NS(C)(=O)=O)[C@@H]1CO[C@H]1CC[C@@H](c2ccccc2)CC1 [compound 16]"
observable = "concentration at 1 h"
assay_result = 63


====

- tested-target: human OX2R (Homo sapiens, UniProt O43614)
- Sequence (O43614 whole entry): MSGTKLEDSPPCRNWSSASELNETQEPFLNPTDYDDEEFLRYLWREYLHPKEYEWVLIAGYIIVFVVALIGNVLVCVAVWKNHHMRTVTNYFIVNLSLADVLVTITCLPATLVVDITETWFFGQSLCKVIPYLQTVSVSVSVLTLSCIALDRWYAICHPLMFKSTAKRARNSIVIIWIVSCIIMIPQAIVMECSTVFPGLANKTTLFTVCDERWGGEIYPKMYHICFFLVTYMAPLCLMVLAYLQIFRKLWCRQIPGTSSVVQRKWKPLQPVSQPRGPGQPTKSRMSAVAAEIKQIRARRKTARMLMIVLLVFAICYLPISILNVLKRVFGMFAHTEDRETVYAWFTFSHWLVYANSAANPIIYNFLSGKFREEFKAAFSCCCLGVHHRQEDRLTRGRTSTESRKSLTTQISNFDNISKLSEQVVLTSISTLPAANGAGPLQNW
- method-description: Calcium flux assay, OX2R agonistic activity
- condition-info: read-out: OX2R agonistic activity EC50; CHO cells expressing human OX2R; calcium flux; 95% confidence intervals in brackets, duplicate measurements
pEC50: −log10 of the molar value.
In this section, each of the molecules is paired with its reported pEC50.
observable: pEC50

[[record]]
query_smiles = "CC(=O)N1CCC[C@H](N(C)S(C)(=O)=O)[C@@H]1CO[C@H]1CC[C@@H](C(C)C)CC1"
assay_result = "< 4.52"

[[record]]
query_smiles = "CCS(=O)(=O)N[C@@H]1CCCN(C(C)=O)[C@H]1CO[C@H]1CC[C@H](C(C)C)CC1"
assay_result = "< 4.52"

[[record]]
query_smiles = "CCS(=O)(=O)N[C@@H]1CCCN(C(C)=O)[C@H]1CO[C@H]1CC[C@@H](C(C)C)CC1"
assay_result = "< 4.52"

[[record]]
query_smiles = "CC(=O)N1CCC[C@H](NS(C)(=O)=O)[C@@H]1CO[C@H]1CC[C@@H](C(C)C)CC1"
assay_result = 6.48

